# SYSTEM NAME: purified recombinant human PARP (Homo sapiens)
# Construct: purchased Trevigen (Gaithersburg, Md.)
# ASSAY PROCEDURE: PARP enzyme assay ([3H]NAD incorporation, scintillation counting)
# Assay type: biochemical
READOUT NAME: pIC50
Units for pIC50: none; it is -log10 of a concentration expressed in mol/L.

Here is how some compounds turned out for pIC50.
O=C1NCCc2c(OCCCCN3CCCCC3)cccc21 [drawing 52] | 5.72
O=C1NCc2cccc3cccc1c23 | 6.27

Proceeding to the next compound to report its pIC50.
Query block: Please look at Nc1ccc2c3c(cccc13)C(=O)NC2=O and tell me its recorded pIC50 on purified recombinant human PARP (Homo sapiens).
Result block: 7.05

* * *

# SYSTEM NAME: purified recombinant human PARP (Homo sapiens, UniProt P09874)
# Construct: purchased Trevigen (Gaithersburg, Md.)
# Sequence (P09874 whole entry): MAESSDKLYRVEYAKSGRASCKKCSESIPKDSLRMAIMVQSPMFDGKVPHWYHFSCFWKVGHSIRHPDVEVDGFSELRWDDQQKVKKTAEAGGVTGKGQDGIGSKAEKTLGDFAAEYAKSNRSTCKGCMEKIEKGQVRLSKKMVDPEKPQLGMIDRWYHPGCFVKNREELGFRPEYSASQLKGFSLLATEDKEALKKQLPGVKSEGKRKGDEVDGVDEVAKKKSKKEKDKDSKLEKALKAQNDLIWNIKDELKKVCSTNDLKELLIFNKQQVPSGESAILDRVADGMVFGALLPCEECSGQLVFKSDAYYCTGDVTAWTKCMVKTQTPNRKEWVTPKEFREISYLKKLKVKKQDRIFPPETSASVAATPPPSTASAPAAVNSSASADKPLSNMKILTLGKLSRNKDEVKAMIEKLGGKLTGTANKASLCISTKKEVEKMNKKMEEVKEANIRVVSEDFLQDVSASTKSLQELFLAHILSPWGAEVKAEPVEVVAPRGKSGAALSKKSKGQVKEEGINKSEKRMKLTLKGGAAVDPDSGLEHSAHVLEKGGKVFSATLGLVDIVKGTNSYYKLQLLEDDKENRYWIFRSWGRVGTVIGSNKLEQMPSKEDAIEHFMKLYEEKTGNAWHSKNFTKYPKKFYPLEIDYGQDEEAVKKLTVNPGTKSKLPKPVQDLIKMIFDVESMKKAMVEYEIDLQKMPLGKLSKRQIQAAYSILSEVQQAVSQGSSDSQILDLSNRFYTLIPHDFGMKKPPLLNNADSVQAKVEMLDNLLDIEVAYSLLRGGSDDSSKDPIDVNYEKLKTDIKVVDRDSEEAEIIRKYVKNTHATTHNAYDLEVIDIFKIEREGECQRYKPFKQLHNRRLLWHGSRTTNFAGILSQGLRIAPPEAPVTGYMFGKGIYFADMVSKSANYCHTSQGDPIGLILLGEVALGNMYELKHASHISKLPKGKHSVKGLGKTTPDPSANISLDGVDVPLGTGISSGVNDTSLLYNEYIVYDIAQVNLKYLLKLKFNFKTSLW
# ASSAY PROCEDURE: PARP enzyme assay ([3H]NAD incorporation, scintillation counting)
# Assay type: biochemical
# ASSAY SETUP: PARP inhibition; unit inferred; read-out: Approximate IC50's
READOUT NAME: pIC50
Units for pIC50: none; it is -log10 of a concentration expressed in mol/L.

Here is how some compounds turned out for pIC50.
O=c1[nH]nc(CN2CCN(c3ccccc3)CC2)c2ccccc12 | 5.40
O=c1[nH]nc(-c2ccc(N3CCCCC3)c([N+](=O)[O-])c2)c2ccccc12 | 6.52
O=C1NCC2c3ccccc3Oc3cccc1c32 (stereo not drawn) | 6.70
CN(C)c1ccc2c(c1)[nH]c(=O)c1ccccc12 | 6.51
O=c1[nH]nc(CN2CCN(c3ccc(Cl)cc3)CC2)c2ccccc12 | 5.89
NC(=O)c1cccc2cccc(C(=O)O)c12 [drawing 59] | 6.60
O=C1NC(=O)c2cc(O)cc3cccc1c23 | 6.09
O=c1[nH]nc2c3c(cccc13)Oc1ccccc1-2 | 7.10

Query block: Tell us which pIC50 value is on record for O=C1NC(=O)c2ccc(Cl)c3cccc1c23
Result block: 6.34

* * *

# SYSTEM NAME: purified recombinant human PARP (Homo sapiens, UniProt P09874)
# Construct: purchased Trevigen (Gaithersburg, Md.)
# ASSAY PROCEDURE: PARP enzyme assay ([3H]NAD incorporation, scintillation counting)
# Type: biochemical
# ASSAY SETUP: PARP inhibition; unit inferred; read-out: Approximate IC50's
pIC50: −log10 of the molar value.
Lab note: compare pIC50 against 7. Equal or greater, write T. Smaller, write F.

Solved entries (count: 2):
O=C1NC(=O)c2ccc(SCCO)c3cccc1c23 | F
Nc1ccc2c(c1)-c1n[nH]c(=O)c3cccc(c13)O2 | T

Query block: Please tell me: is the compound O=C(O)c1cccc2[nH]c(=O)c3ccccc3c12 at or over 7 in terms of pIC50?
Result block: F
